MEASURED PARAMETER: glass transition temperature

q: Answer with the recorded glass transition temperature for the compound listed here: *c1ccc(Oc2ccc(C(C)(C)c3ccc(Oc4ccc(-c5nnc(*)n5-c5cccc(C(F)(F)F)c5)cc4)cc3)cc2)cc1 (repeat unit)
a: 190.00 °C

q: Answer with the recorded glass transition temperature for the compound listed here: *CC(COc1ccc(C(C)(C)c2ccc(O*)cc2)cc1)OC(=O)CCl (repeat unit)
a: 65.00 °C

====

MEASURED PARAMETER: glass transition temperature (°C)
Return type: number; implicit unit °C.

q: Answer with the recorded glass transition temperature for the molecule listed here: *CC(CS(=O)(=O)CCC)O* (repeat unit)
a: 43.00

Further cases:
q: Answer with the recorded glass transition temperature for the molecule listed here: *CCc1cc(Cl)c(*)c(Cl)c1 (repeat unit)
a: 110.00

q: Answer with the recorded glass transition temperature for the molecule listed here: *c1ccc(Oc2ccc(-c3cc(-c4ccccc4)c4cc(Oc5ccc6nc(*)cc(-c7ccccc7)c6c5)ccc4n3)cc2)cc1 (repeat unit)
a: 266.00

q: Answer with the recorded glass transition temperature for the molecule listed here: *C(=O)c1ccc2c(c1)C(=O)N(c1ccc(Oc3ccc(C(c4ccc(Oc5ccc(N6C(=O)c7ccc(*)cc7C6=O)cc5C(F)(F)F)cc4)(C(F)(F)F)C(F)(F)F)cc3)c(C(F)(F)F)c1)C2=O (repeat unit)
a: 220.00

q: Answer with the recorded glass transition temperature for the molecule listed here: *CCCCCCOC(=O)OCCCCCCCCCCCCOC(=O)OCCCCCCOc1ccc(C(=O)c2ccc(O*)cc2)cc1 (repeat unit)
a: -8.00

q: Answer with the recorded glass transition temperature for the molecule listed here: *OC(=O)CNC(=O)CNC(=O)CCCCCCCCC(=O)NCC(=O)NCC(=O)OC1COC2C(*)COC12 (repeat unit)
a: 47.00

q: Answer with the recorded glass transition temperature for the molecule listed here: *c1ccc2c(c1)C(=O)N(c1ccc(C3(c4ccc(N5C(=O)c6ccc(C(*)(C(F)(F)F)C(F)(F)F)cc6C5=O)c(F)c4)c4ccccc4-c4ccccc43)cc1F)C2=O (repeat unit)
a: 352.00

q: Answer with the recorded glass transition temperature for the molecule listed here: *c1ccc(Oc2ccc(-c3ccc(Oc4ccc(-c5nc(-c6ccccn6)nnc5*)cc4)cc3)cc2)cc1 (repeat unit)
a: 230.00

q: Answer with the recorded glass transition temperature for the molecule listed here: *c1ccc(CC(=O)Nc2ccc(-c3ccc(NC(=O)Cc4ccc(-c5sc(*)c(-c6ccccc6)c5-c5ccccc5)cc4)cc3)cc2)cc1 (repeat unit)
a: 272.00

q: Answer with the recorded glass transition temperature for the molecule listed here: *Oc1ccc(-c2ccc(Oc3ccc(C(=O)c4ccc(*)c(S(=O)(=O)O)c4)cc3S(=O)(=O)O)cc2)cc1 (repeat unit)
a: 225.00

q: Answer with the recorded glass transition temperature for the molecule listed here: *Oc1ccc(C(C)(C)c2ccc(OC(=O)c3ccccc3-c3ccccc3C(*)=O)cc2)cc1 (repeat unit)
a: 161.00

q: Answer with the recorded glass transition temperature for the molecule listed here: *CC(*)c1ccccc1C(=O)OCC(C)C (repeat unit)
a: 127.00

q: Answer with the recorded glass transition temperature for the molecule listed here: *c1ccc(-c2ccc(-n3c(=O)c4cc5c(=O)n(*)c(=O)c5c(C(F)(F)F)c4c3=O)cc2C(F)(F)F)c(C(F)(F)F)c1 (repeat unit)
a: 373.00

q: Answer with the recorded glass transition temperature for the molecule listed here: */C=C(/*)c1ccccc1[Si](C)(C)C (repeat unit)
a: 190.00

q: Answer with the recorded glass transition temperature for the molecule listed here: *C1C(=O)N(C(C)(C)C)C(=O)C1* (repeat unit)
a: 195.00

q: Answer with the recorded glass transition temperature for the molecule listed here: *C(=O)c1cc2c(cc1Cl)C(=O)N(c1cc(C(=O)O)cc(N3C(=O)c4cc(*)c(Cl)cc4C3=O)c1)C2=O (repeat unit)
a: 368.00

q: Answer with the recorded glass transition temperature for the molecule listed here: *Oc1ccc(CC(NC(=O)CCc2ccc(OC(=O)CCCCCCCCC(*)=O)cc2)C(=O)OCc2ccccc2)cc1 (repeat unit)
a: 42.00

q: Answer with the recorded glass transition temperature for the molecule listed here: *CC(*)(C)C(=O)Oc1ccc(C(=O)O)cc1 (repeat unit)
a: 110.00

q: Answer with the recorded glass transition temperature for the molecule listed here: *NNC(=O)c1ccc(C(*)=O)cc1OCCCCCCCC (repeat unit)
a: 203.50

q: Answer with the recorded glass transition temperature for the molecule listed here: *CC(=O)Nc1ccc(NC(=O)CN2C(=O)c3ccc(C(=O)c4ccc5c(c4)C(=O)N(*)C5=O)cc3C2=O)cc1 (repeat unit)
a: 250.00

q: Answer with the recorded glass transition temperature for the molecule listed here: *N(C)[Si](*)(C)C (repeat unit)
a: -20.00

q: Answer with the recorded glass transition temperature for the molecule listed here: *CC(*)c1ccc(COCCO)cc1 (repeat unit)
a: 46.00

q: Answer with the recorded glass transition temperature for the molecule listed here: *N(C)[Si](C)(C=C)N(C)[Si](*)(C)C (repeat unit)
a: -42.00

q: Answer with the recorded glass transition temperature for the molecule listed here: *c1ccc(C(=O)NCCCCCCCCCCNC(=O)c2ccc(-c3nc4ccccc4nc3*)cc2)cc1 (repeat unit)
a: 166.00
